Data origin: PubChem BioAssay (NCI)

Test system: KM12 colon
Experiment description: NCI tumour cell line growth inhibition, 48 h
Listed here: items and their measured TGI.
The reply should contain only the number, in µM.

1. C=C(C)[C@@H]1CC[C@]2(CO)CC[C@]3(C)[C@H](CC[C@@H]4[C@@]5(C)CCCNC(C)(C)[C@@H]5CC[C@]43C)[C@@H]12; 3.24

Now for the molecule whose TGI we want.
Given CCn1c(SCC(=O)N/N=C2\SCC(=O)N2c2ccc(C)cc2)nc2ccccc2c1=O , state its recorded TGI.
47.3

###

Documented TGI across a set of molecules
Test system: BT-549 breast
Experiment description: NCI tumour cell line growth inhibition, 48 h
Where a SMILES comes first, the peptide text is derived from it. [ ]: non-standard residue; d: D form. pGlu = O=C1CC[CH](C(=O)O)N1

1) CC(C)(C)c1cc(/C=C(\C#N)C2=NCCO2)cc(C(C)(C)C)c1O; 12.4 µM

# input molecule: CCOC(=O)c1[nH]c2cc(Cl)ccc2c1[C@@H](C(=O)NC(C)(C)C)N(CC)C(=O)CCCCC#Cc1cccc2c1CN(C1CCC(=O)NC1=O)C2=O (stereo not given in full) ; wanted: its TGI
4.81 µM

Given CN(C)c1ccc(/C=N/NC(N)=S)nc1 , state its recorded TGI.
> 100 µM

Please look up its TGI: CCOP(=O)(CC(=O)C1CC1)OCC
> 100 µM

Give the measured TGI of CC(NC(=O)C1CCC(=O)N1)C(=O)N1CCCC1C(N)=O (stereo not drawn) ([pGlu]-Ala-Pro-NH2; configuration not given here) .
> 100 µM

###

Tested on: MOLT-4 leukemia
Experiment description: NCI tumour cell line growth inhibition, 48 h
Property name: TGI

1. COc1ccc(C2SCC(=O)N2c2ccc(-n3c(-c4ccccc4)nc4ccccc4c3=O)cc2)cc1 (stereo unspecified); > 100 µM

If you can, please state the reported TGI value of Cc1ccc(/C=C/C(=O)c2ccc(Cl)c(Cl)c2)cc1 .
> 100 µM

###

# TGI values compiled below
Test system: ACHN renal
Experiment description: NCI tumour cell line growth inhibition, 48 h
State the answer as a number, implicitly in µM.

# annotated cases, reported TGI shown
1. C=C(C)[C@@H]1CC[C@]2(CO)CC[C@]3(C)[C@H](CC[C@@H]4[C@@]5(C)CCCNC(C)(C)[C@@H]5CC[C@]43C)[C@@H]12; 3.09
2. CO/C=C(/C(=O)OC)[C@@H]1C[C@@H]1c1ccc2ccccc2c1; 78.7
3. CC(=O)O.CN1[CH-]N(Cc2ccc(C#N)cc2)c2ccccc21.[Ag+]; 30.2

With those in mind, consider the next compound.
Missing value: TGI, ACHN renal, entry COc1ccc(C2CC(c3c(O)ccc4ccccc34)=NN2)cc1OC (stereo not given) . Fill in?
4.82

###

Tested on: TK-10 renal
Experiment description: NCI tumour cell line growth inhibition, 48 h
Reported GI50 values for the following compounds.

Consider the reported GI50 for these compounds:
1) COc1ccccc1C#Cc1ccccc1C#Cc1ccc(OCCCCCCOc2ccccc2C#Cc2ccccc2C#Cc2ccccc2OC)cc1; > 100 µM
2) CCC1=C(c2ccc(OC)cc2)C(C)(C)Oc2c1ccc(O)c2CN1CCCC1; 5.26 µM
3) O=C1c2c(c(=O)[nH]c3ccccc23)[C@H](c2ccccc2)[C@@H]2CCCN12; 20.5 µM
4) CCOC(=O)C(=Cc1ccc(C#N)cc1)C(=O)OCC; 2.28 µM
5) COc1ccc2c(c1)c(-c1nc(-c3cn(C)c4ccncc34)cs1)cn2C; 1.49 µM

Which measured GI50 value corresponds to FC1(F)ON2CCc3ccccc3C2[C@H]1c1ccccc1 (stereo partly drawn) ?
> 100 µM

Name the recorded GI50 for O=C(O)Cc1cccc2c(=O)cc(-c3ccccc3)oc12 .
990 µM

What measured GI50 goes with CC(=O)O.CN1[CH-]N(Cc2ccc(C#N)cc2)c2ccccc21.[Ag+] ?
18 µM

# query: GI50 of entry Cc1c(Cn2c(C)nc3c(C(=O)O)cc(N4CCOCC4)cc32)cccc1C(F)(F)F
34 µM

Data request, read-out GI50, for NC(=S)N/N=C/c1ccc(OC(=O)COc2cc(Cl)c(Cl)cc2Cl)cn1
41.9 µM

If you can, please state the reported GI50 value of CN(C)c1ccc(/C=N/NC(N)=S)nc1 .
7.61 µM

// lookup GI50 for Oc1ccccc1-c1nn(CNc2ccc(Cl)cc2)c(=S)o1
1.53 µM

Find the recorded GI50 belonging to Cc1ccc2c(C(C[N+](=O)[O-])c3ccccc3)c(-c3ccccc3)[nH]c2c1 (stereo not drawn) and report it.
> 95 µM

###

Test system: ACHN renal
Experiment description: NCI tumour cell line growth inhibition, 48 h
Parameter TGI: see the listing below.

Item CC(=O)Nc1nc(C)c(S(=O)(=O)NC(=O)NC2NC(=O)NC2=O)s1 (stereo not given) has what recorded TGI?
> 100 µM

###

Each entry below lists one item and its recorded TGI value.
Test system: UACC-257 melanoma
Experiment description: NCI tumour cell line growth inhibition, 48 h

Example entries begin here.
1) C=C(C)[C@@H]1CC[C@]2(CO)CC[C@]3(C)[C@H](CC[C@@H]4[C@@]5(C)CCCNC(C)(C)[C@@H]5CC[C@]43C)[C@@H]12; 3.73 µM
2) O=C(c1c(F)c(F)c(F)c(F)c1F)c1c(F)c(F)c(F)c(F)c1F; 4.65 µM
3) COc1cc2nc(N3CCCN(C)CC3)nc(NC3CCN(Cc4ccccc4)CC3)c2cc1OC; 3.36 µM
4) FC1(F)ON2CCc3ccccc3C2[C@H]1c1ccccc1 (some centres undefined); > 100 µM
5) C#C[C@]1(O)CC[C@H]2[C@@H]3CCC4=C/C(=N\OCCN5CCCCC5)CC[C@]4(C)[C@H]3CC[C@@]21C; 12.8 µM
6) CCOC(=O)c1ccc(-n2cnc(-c3ccc([N+](=O)[O-])cc3)c2)cc1; > 100 µM

For the compound C#CC1(O)CCC2[C@@H]3CCc4cc(Oc5nc(F)nc(-c6c(C)c(C(=O)OCC)n7ccccc67)n5)ccc4C3CC[C@@]21C (some centres undefined) , what TGI is on record?
> 100 µM

I would be grateful if you could share the reported TGI for Cn1c(-c2ccc(C=O)o2)ccc1-c1ccc(C=O)o1 .
> 100 µM

What value of TGI has been reported for the following compound? CC1=C(C#N)C23C(=O)N(c4ccccc4)C(=O)C2=C(O)C=CC3(O)N1Cc1ccc(Cl)cc1Cl (centres undefined)
27 µM

###

The compounds listed here are annotated with their GI50.
Test system: CCRF-CEM leukemia
Experiment description: NCI tumour cell line growth inhibition, 48 h

1) Oc1ccccc1-c1nn(CNc2ccc(Cl)cc2)c(=S)o1; > 100 µM
2) CC1=C(C#N)C23C(=O)N(c4ccccc4)C(=O)C2=C(O)C=CC3(O)N1Cc1ccc(Cl)cc1Cl (stereo not given); 1.59 µM
3) CSc1ccc(C2=NN(C(C)=O)C(c3ccc(-c4cc(Cl)c(Cl)cc4Cl)o3)C2)cc1 (stereo not given); 21.5 µM
4) COc1ccc(Nc2nc(NCCNc3ccnc4cc(Cl)ccc34)nc(N3CCOCC3)n2)cc1; 2.95 µM

Now turn to the next compound.
# lookup: GI50 of Cc1cc2c(F)c(Oc3ncnc(Nc4ccc(N5C[C@@H](C)N[C@@H](C)C5)cc4)c3C#N)cc(F)c2[nH]1
1.64 µM

###

Tested on: MDA-N
Experiment description: NCI tumour cell line growth inhibition, 48 h
Property name: TGI

Some molecules with known TGI results, for comparison:
1. COC(=O)Nc1nc2ccc(NS(=O)(=O)c3cccs3)cc2[nH]1; 16.8 µM
2. O=c1cc(-c2ccc(F)cc2)[nH]c2ncccc12; 35.9 µM
3. CN1CCC2(CC1)SSC1(CCN(C)CC1)S2; > 100 µM
4. COc1ccc(S(=O)(=O)Nc2ccc(-c3csc(N4C(=O)/C(=C/c5ccccc5[N+](=O)[O-])N=C4c4ccccc4)n3)cc2)cc1Cl; > 100 µM
5. O=C1c2ccccc2C(=O)N1CCc1ncc(-c2ccccc2)[nH]1; > 100 µM

Under MDA-N: TGI value of CCOC(=O)c1ccc(-n2cnc(-c3ccc([N+](=O)[O-])cc3)c2)cc1 ?
> 100 µM

# value lookup — system MDA-N, readout TGI, item CN(O)C(=O)CCC(NC(=O)CCC(N)C(=O)O)C(=O)NCC(=O)O (configuration not stated)
> 100 µM

Item: COC(=O)[C@H](Cc1ccccc1)NC(=O)c1ccc(CNC(=O)/C=C/c2ccc(OCc3ccccc3)cc2)cc1 Test system: MDA-N Read-out: TGI Value: ?
5.43 µM

###

Recorded measurements of GI50, one per entry
System: CCRF-CEM leukemia
Experiment description: NCI tumour cell line growth inhibition, 48 h

Look over these answered cases.
1) NCCCCC(NC(=O)C(N)CCCN=C(N)N)C(=O)NC(CCCCN)C(=O)NC(CCCN=C(N)N)C(=O)NC(CCCN=C(N)N)C(=O)NC(CCC(N)=O)C(=O)NC(CCCN=C(N)N)C(=O)NC(CCCN=C(N)N)C(=O)NC(CCCN=C(N)N)C(=O)NCC(=O)NCC(=O)O (stereo not given); 1.53 µM
2) COc1ccc(-c2ncnc3c2ncn3CC#CCCl)cc1; 3.84 µM
3) CSc1cc([C@@H]2C[C@H]2c2ccc(Cl)cc2)on1; 20.3 µM
4) COc1cc(CCC[P+](c2ccccc2)(c2ccccc2)c2ccccc2)c(OC)c2c1OCO2; 1.61 µM

// returns reported GI50 for input Cc1ccc2c(C(C[N+](=O)[O-])c3ccccc3)c(-c3ccccc3)[nH]c2c1 (stereo not given)
25.2 µM
